The reported numbers originate from ChEMBL document CHEMBL1201862.

Tested on: BT-549
assay.name: NCI tumour cell line growth inhibition, 48 h
Activity calls are given as the source filed them. Cut-off read from the data, not from the text of the source: active = GI50 up to about 1.1 µM and inactive = higher.
Here the recorded GI50 is given for each entry.

Here is how some compounds turned out for GI50.
{"compound": "O=S(=O)(/N=C(\\NO)Nc1ccc(Cl)cc1)c1ccc(-c2ccccn2)s1", "GI50": "19.6 µM (inactive)"}
{"compound": "CC(N)/C(N)=N/O (centres undefined)", "GI50": "> 100 µM (inactive)"}
{"compound": "O=C1C=C(c2c(-c3ccccc3)[nH]c3ccccc23)C(=O)N1c1ccccc1", "GI50": "6.73 µM (inactive)"}

Here is another compound to look at.
IN: Item `Cc1cccc2sc(NC(=O)c3cc([N+](=O)[O-])ccc3Cl)nc12` has what recorded GI50?
OUT: 2.44 µM (inactive)

* * *

Test system: MDA-N
assay.name: NCI tumour cell line growth inhibition, 48 h
Calls of active or inactive are those of the source. No stated cut-off is given here; in the data, active = GI50 up to about 1.1 µM and inactive = higher.
The categories you may choose from are true (1) for active, false (0) for inactive

Below are worked cases with known answers.
{"compound": "COc1ccc(Nc2nc3ccc(C(F)(F)F)cc3nc2C(=O)O)cc1", "class": "false (0)"}
{"compound": "c1ccc2c(c1)c1ccccc1n2Cn1c2ccccc2c2ccccc21", "class": "false (0)"}
{"compound": "CC(O)CC(O)(C(F)(F)F)C(F)(F)F (stereo unspecified)", "class": "false (0)"}
{"compound": "CC(C)CCCC(C)[C@H]1CCC2[C@@H]3CCC4Cc5nc6c(nc5C[C@]4(C)C3CC[C@@]21C)CC1CC[C@@H]2C(C[C@@H](O)[C@@]3(C)C2C[C@@H]2OC4(CCC(C)CO4)C(C)[C@@H]23)[C@@]1(C)C6 (stereo partly specified)", "class": "false (0)"}
{"compound": "CN(/N=C/c1ccccn1)C1=NCCCN1", "class": "false (0)"}
{"compound": "CC(=O)OCC1OC(OC(C)=O)C(Nc2ncc(-c3ccc(C)cc3)s2)C(OC(C)=O)C1OC(C)=O (stereo unspecified)", "class": "false (0)"}

IN: How was `COc1cc(/C=C/c2sc3ccccc3[n+]2C)ccc1N(C)C` classified in this test?
OUT: false (0)

IN: Query CCOC(=O)NC(C(=O)OCC)(N1CCN(c2cc3c(cc2F)c(=O)c(C(=O)O)cn3CC)CC1)C(F)(F)F (stereo unspecified) next
OUT: false (0)

IN: Query `C/C(=N/NC(=S)N(C)CCc1ccccn1)c1cnccn1` next
OUT: true (1)

IN: Query `COc1ccccc1Cn1nc(OC)c2cc([N+](=O)[O-])ccc21` next
OUT: false (0)

IN: Query `COc1c(OC)c(OC)c2c(=O)cc(-c3ccc(OC(C)C)cc3)oc2c1OC` next
OUT: false (0)

IN: Query OCC1OC(n2cnc3c2NC=NC[C@H]3O)CC1O (stereo partly specified) next
OUT: false (0)

IN: Query `Cc1cccc2sc(NC(=O)c3cc([N+](=O)[O-])ccc3Cl)nc12` next
OUT: false (0)

IN: Query CC(C)CCC[C@@H](C)[C@H]1CCC2C3CC=C4C[C@@H](Oc5c6ccccc6nc6ccccc56)CCC4C3CCC21 (stereo partly specified) next
OUT: false (0)

IN: Query `CN(Cc1cc(C(C)(C)C)cc(Br)c1O)Cc1cc(C(C)(C)C)cc(Br)c1O` next
OUT: false (0)

IN: Query COc1cc2c(cc1OC)C1C(O)C(OC)C=C3CC[N+](C)(C2)C31 (stereo unspecified) next
OUT: false (0)
